Exercise: state measured EC90 for each of the molecules provided.
- Test Description: Example 4: dose response of FKBP constructs 160-255, Ec50, Ec90 and fold change (raw and normalized to mCherry)
- Assay type: cell-based
- Protocol Conditions: FKBP constructs 160-255; not normalized; read-out: EC90
Answer with a number only, understood to be in nM.

Query block: # EC90 lookup, item FKBP-255: FKBP13 DRD-AcGFP construct of Table 10 (protein, Description of sequence: Construct Name: FKBP-255; Mutation(s): Q72R Q84E A117W V85R DRD G99R) HCPIKSRKGDVLHMHYTGKLEDGTEFDSSLPRNQPFVFSLGTGERIKGWDQGLLGMCEREKRKLVIPSELGYGERGWPPKIPGGATLVFEVELLKIER
Result block: 101

Query block: I would be grateful if you could share the reported EC90 for FKBP-208 (protein, Description of sequence: Construct Name: FKBP-208; Mutation(s): Q72R Q84E A117W V85R DRD M54A E130R) HCPIKSRKGDVLHAHYTGKLEDGTEFDSSLPRNQPFVFSLGTGERIKGWDQGLLGMCEGEKRKLVIPSELGYGERGWPPKIPGGATLVFRVELLKIER .
Result block: 4220

Query block: # get_value(readout='EC90', item= FKBP-249 (protein, Description of sequence: Construct Name: FKBP-249; Mutation(s): Q72R Q84E A117W V85R DRD S68D) HCPIKSRKGDVLHMHYTGKLEDGTEFDDSLPRNQPFVFSLGTGERIKGWDQGLLGMCEGEKRKLVIPSELGYGERGWPPKIPGGATLVFEVELLKIER )
Result block: 472

Query block: I would be grateful if you could share the reported EC90 for FKBP-221 (protein, Description of sequence: Construct Name: FKBP-221; Mutation(s): Q72R Q84E A117W V85R DRD M54A T25G) HCPIKSRKGDVLHAHYTGKLEDGGEFDSSLPRNQPFVFSLGTGERIKGWDQGLLGMCEGEKRKLVIPSELGYGERGWPPKIPGGATLVFEVELLKIER .
Result block: 495

Query block: Can you share its EC90? I mean this molecule: FKBP-236 (protein, Description of sequence: Construct Name: FKBP-236; Mutation(s): Q72R Q84E A117W DRD G113N) HCPIKSRKGDVLHMHYTGKLEDGTEFDSSLPRNQPFVFSLGTGEVIKGWDQGLLGMCEGEKRKLVIPSELGYNERGWPPKIPGGATLVFEVELLKIER
Result block: 1810

Query block: I have this molecule here, FKBP-247 (protein, Description of sequence: Construct Name: FKBP-247; Mutation(s): Q72R Q84E A117W V85R DRD S69H M54A) HCPIKSRKGDVLHAHYTGKLEDGTEFDSHLPRNQPFVFSLGTGERIKGWDQGLLGMCEGEKRKLVIPSELGYGERGWPPKIPGGATLVFEVELLKIER , and I need its recorded EC90.
Result block: 2810

Query block: What measured EC90 goes with FKBP-228: combinatorial FKBP13 mutant construct of Table 10 (protein, Description of sequence: Construct Name: FKBP-228; Mutation(s): Q72R Q84E A117W V85R DRD E137R) HCPIKSRKGDVLHMHYTGKLEDGTEFDSSLPRNQPFVFSLGTGERIKGWDQGLLGMCEGEKRKLVIPSELGYGERGWPPKIPGGATLVFEVELLKIRR ?
Result block: 116

Query block: Any idea what its EC90 is? The molecule is FKBP-214: FKBP13 DRD-AcGFP construct of Table 10 (protein, Description of sequence: Construct Name: FKBP-214; Mutation(s): Q72R Q84G A117W V85R DRD P43R M54A) HCRIKSRKGDVLHAHYTGKLEDGTEFDSSLPRNQPFVFSLGTGGRIKGWDQGLLGMCEGEKRKLVIPSELGYGERGWPPKIPGGATLVFEVELLKIER
Result block: 388

Query block: Which EC90 value is on record for FKBP-195: combinatorial FKBP13 mutant construct of Table 10, carries K135Y (protein, Description of sequence: Construct Name: FKBP-195; Mutation(s): Q72R Q84E A117W V85R DRD K135Y) HCPIKSRKGDVLHMHYTGKLEDGTEFDSSLPRNQPFVFSLGTGERIKGWDQGLLGMCEGEKRKLVIPSELGYGERGWPPKIPGGATLVFEVELLYIER ?
Result block: 165

Query block: Value lookup for EC90; key = FKBP-237 (protein, Description of sequence: Construct Name: FKBP-237; Mutation(s): Q72R Q84E A117W V85R DRD G113N) HCPIKSRKGDVLHMHYTGKLEDGTEFDSSLPRNQPFVFSLGTGERIKGWDQGLLGMCEGEKRKLVIPSELGYNERGWPPKIPGGATLVFEVELLKIER
Result block: 550
